Each recorded value in this set is attributed to a melting point compilation (Tetko et al.; mined from patent text by program, amines drawn as free bases though some values may be those of a salt).

melting point values by entry

Please review the entries below; each comes with its answer.
For CC(CC1c2ccccc2CCN1C)NCC(O)c1ccc(O)cc1 (configuration not stated) , what is its reported melting point?
113 to 115 °C

For Cc1cccc(-c2[nH]cnc2-c2ccc(F)c(Br)c2)n1 , what is its reported melting point?
205 °C

For Nc1nc2ccc(S(=O)(=O)n3c(CCCC(=O)O)cc4cc(Cl)ccc43)cc2s1 , what is its reported melting point?
155 to 162 °C

Further cases:
For CC12CCC(=O)CC1CCC1C2CCC2(C)C(C(N)=O)CCC12 (configuration not stated) , what is its reported melting point?
259 to 262 °C

For O=S(=O)(CCO)c1cc2c(Nc3cccc(Br)c3)ncnc2cn1 , what is its reported melting point?
208 to 209 °C

For Cc1cccc2[nH]c(=O)n(CCCN3CC=C(c4ccc(Cl)cc4)CC3)c(=O)c12 , what is its reported melting point?
175 to 178 °C

For COC(=O)C(=O)c1ccc(OCCOc2cc(OC)c(OC)c(OC)c2)cc1 , what is its reported melting point?
82 to 83 °C

For Nc1nc2n(c(=O)c1N=O)CCN2Cc1ccc(Cl)cc1 , what is its reported melting point?
273 to 275 °C

For CCCCCCN(C)c1ccc(C=C2SC(=S)N(CC(=O)NS(=O)(=O)c3ccccc3)C2=O)cc1 , what is its reported melting point?
173 to 177 °C

For CC(C)C1(C)N=C(c2ccc(O)cn2)NC1=O (configuration not stated) , what is its reported melting point?
252 to 254 °C

For FC(F)(F)c1cc(Cl)nc2[nH]ncc12 , what is its reported melting point?
112 °C

For CN=C1c2ccccc2CCc2ccc(Cl)cc21 , what is its reported melting point?
84 to 114 °C

For COc1ccc(N2CCN(Cc3coc4c(OC)cccc34)CC2)cc1 , what is its reported melting point?
126 to 127 °C

For CCOC(=O)CC(=O)c1cc(F)c(S(=O)(=O)c2ccccc2)nc1Nc1ccc(F)cc1F , what is its reported melting point?
140 to 141 °C

For O=CN1CCN(c2nc(Cl)nc(Cl)n2)CC1 , what is its reported melting point?
163 to 165 °C

For CC(C)=CCN1c2nc(Cl)ccc2NC(=O)[C@@H]1C , what is its reported melting point?
136 to 137 °C

For Nc1ccc(Nc2c(NCC3CCCO3)cc(C(=O)O)cc2S(N)(=O)=O)cc1 (configuration not stated) , what is its reported melting point?
253 °C

====

measured-quantity: melting point (°C)

a: CCOc1ccc2[nH]c(=O)n(N3CCN(C)CC3)c2c1
b: CN(C(=O)Nc1cccc(C(F)(F)F)c1)S(C)(=O)=O
Would you kindly point out which of a and b has the smaller melting point figure? Respond using the label that marks the chosen record.
b

====

melting point values by entry

For CC1(C)C=C(c2ccccn2)c2cc(C#N)ccc2OC1 , what is its reported melting point?
155 to 157 °C

Further cases:
For COC(=O)Cc1ccc(Sc2ccccc2C(=O)N(C)C)c([N+](=O)[O-])c1 , what is its reported melting point?
124 to 125 °C

For O=C1CC[N+]([O-])=C(c2ccccc2Cl)c2cc(Cl)ccc21 , what is its reported melting point?
184 to 187 °C

For CCOC(=O)C1CC(=O)c2c(OC)ccc(OC)c2C1 (centres undefined) , what is its reported melting point?
96 to 98 °C

For CCC1(c2cccc(O)c2)CNCC(C)O1 (centres undefined) , what is its reported melting point?
75 to 105 °C

For Cc1c(C(=O)CCl)csc1C(=O)CCl , what is its reported melting point?
155 to 156 °C

For CCCNC(=O)C1=C(C(=O)Nc2cc(OC3CCCC3)c(Cl)cc2F)CCCC1 , what is its reported melting point?
138 to 140 °C
